As a worked illustration, we turn to MIC data collected for Bacillus subtilis.

Known results for molecules:
CC[C@H](C)[C@H](N)C(=O)N[C@@H](CC(N)=O)C(=O)N[C@@H](Cc1c[nH]c2ccccc12)C(=O)N[C@@H](CCCCN)C(=O)N[C@@H](CCCCN)C(=O)N[C@H](C(=O)N[C@@H](C)C(=O)N[C@@H](CO)C(=O)N[C@H](C(=O)NCC(=O)N[C@@H](CCCCN)C(=O)N[C@@H](CCC(=O)O)C(=O)N[C@H](C(=O)N[C@@H](CC(C)C)C(=O)N[C@@H](CCCCN)C(N)=O)C(C)C)[C@@H](C)CC)[C@@H](C)CC [INWKKIASIGKEVLK]	≥ 100 µM
CC[C@H](C)[C@H](NC(=O)[C@H](CO)NC(=O)[C@H](C)NC(=O)[C@@H](NC(=O)[C@H](CCCCN)NC(=O)[C@H](CCCCN)NC(=O)[C@H](Cc1c[nH]c2ccccc12)NC(=O)[C@@H](N)CC(N)=O)[C@@H](C)CC)C(=O)NCC(=O)N[C@@H](CCCCN)C(=O)N[C@@H](CCC(=O)O)C(=O)N[C@H](C(=O)N[C@@H](CC(C)C)C(=O)N[C@@H](CCCCN)C(=O)N[C@@H](C)C(=O)N[C@@H](CC(C)C)C(N)=O)C(C)C [NWKKIASIGKEVLKAL]	≥ 46 µM

Now take the following molecule into account.
MIC recorded for this molecule, CC[C@H](C)[C@H](NC(=O)[C@@H](N)Cc1ccc(O)cc1)C(=O)N1CCC[C@H]1C(=O)N[C@@H](CCC(N)=O)C(=O)N1CCC[C@H]1C(=O)N[C@@H](CCCN=C(N)N)C(=O)N1CCC[C@H]1C(=O)N1CCC[C@H]1C(=O)N[C@@H](Cc1cnc[nH]1)C(=O)N1CCC[C@H]1C(=O)N[C@@H](CCCN=C(N)N)C(=O)N[C@@H](CC(C)C)C(=O)O [YIPQPRPPHPRL] , is ≥ 64 µM

###

Recorded MIC values (Escherichia coli ATCC 25922) are given below.

CC(C)C[C@H](NC(=O)[C@H](CC(C)C)NC(=O)[C@H](CCCCN)NC(=O)[C@H](CCCCN)NC(=O)[C@H](CC(C)C)NC(=O)[C@H](CC(=O)O)NC(=O)[C@H](CCCCN)NC(=O)[C@H](CC(C)C)NC(=O)[C@@H](N)Cc1ccccc1)C(N)=O	> 115 µM
CC[C@H](C)[C@H](NC(=O)[C@H](CCCN=C(N)N)NC(=O)[C@H](CCCCN)NC(=O)[C@H](CC(C)C)NC(=O)[C@H](CC(C)C)NC(=O)CN)C(=O)N[C@@H](CCCCN)C(=O)N[C@H](C(=O)N[C@@H](CC(C)C)C(=O)N[C@@H](C)C(N)=O)[C@@H](C)O	> 43.1 µM

Switching to the query record.
MIC for CC[C@H](C)[C@H](NC(=O)[C@@H]1CCCN1C(=O)[C@H](CCCN=C(N)N)NC(=O)[C@@H]1CCCN1C(=O)CNC(=O)[C@@H]1CCCN1C(=O)[C@H](CCCN=C(N)N)NC(=O)[C@@H]1CCCN1C(=O)[C@H](Cc1ccccc1)NC(=O)[C@@H]1CCCN1C(=O)[C@H](CC(C)C)NC(=O)[C@@H]1CCCN1C(=O)[C@H](CCCN=C(N)N)NC(=O)[C@@H]1CCCN1)C(=O)O is > 128 µM

###

Tested on: Escherichia coli ATCC 25922
Measured endpoint: MIC

Required: MIC, one value per compound below.
1. CC(C)C[C@H](NC(=O)[C@H](CC(C)C)NC(=O)[C@H](CCCCN)NC(=O)[C@H](CC(C)C)NC(=O)[C@H](CC(C)C)NC(=O)[C@H](Cc1c[nH]c2ccccc12)NC(=O)[C@H](CCCCN)NC(=O)[C@H](CC(C)C)NC(=O)[C@H](CC(C)C)NC(=O)[C@H](CCCCN)NC(=O)[C@H](CCCCN)NC(=O)[C@@H](N)CC(C)C)C(=O)N[C@@H](CCCCN)C(N)=O
2. CC[C@H](C)[C@H](NC(=O)[C@H](CC(C)C)NC(=O)[C@@H](NC(=O)[C@@H](N)CC(=O)O)[C@@H](C)CC)C(=O)N[C@H](C(=O)N[C@H](C(=O)NCC(=O)NCC(=O)N[C@@H](CCCCN)C(=O)N[C@@H](CCC(=O)O)C(=O)N[C@@H](CCCN=C(N)N)C(=O)N[C@@H](CCCCN)C(=O)N[C@@H](CCCCN)C(=O)N[C@@H](CCCN=C(N)N)C(=O)N[C@@H](CCCN=C(N)N)C(=O)N[C@@H](CCCN=C(N)N)C(N)=O)C(C)C)[C@@H](C)CC

Reply |
1. > 122 µM
2. > 64 µM

Lab book: MIC of NC(=O)C[C@H](NC(=O)[C@H](Cc1c[nH]c2ccccc12)NC(=O)[C@H](Cc1c[nH]c2ccccc12)NC(=O)[C@H](Cc1c[nH]c2ccccc12)NC(=O)[C@H](CC(N)=O)NC(=O)[C@H](Cc1c[nH]c2ccccc12)NC(=O)[C@H](CCCN=C(N)N)NC(=O)[C@@H](N)CCCN=C(N)N)C(=O)N[C@@H](Cc1c[nH]c2ccccc12)C(=O)N[C@@H](CCCN=C(N)N)C(=O)N[C@@H](CCCN=C(N)N)C(N)=O noted as > 64 µM

Data origin, for the record: DBAASP
